Recorded IC50 for the following molecules
target_of_assay: SMYD3 (Homo sapiens (Human))
test_description: SMYD3 biochemical assay (SPA, 3H-SAM methylation of MEKK2 protein substrate)
condition_description: average of n = 1 to n = 50; read-out: SMYD3 Biochem IC50
Write the value in nM as a bare number.

Below are worked cases with known answers.
{"molecule": "CN(C1CCNCC1)S(=O)(=O)N1CC[C@@H](NC(=O)c2cc(C3CC3)on2)C[C@H]1Cc1ccccc1", "endpoint_result": 726}
{"molecule": "C[C@H]1CN(S(=O)(=O)N2CCN(C)CC2)CC[C@H]1NC(=O)c1cc(C2CC2)on1", "endpoint_result": 261}
{"molecule": "O=C(N[C@@H]1C[C@H]2CCC[C@@H](C1)N2S(=O)(=O)c1cncc(F)c1)c1cc(C2CC2)on1", "endpoint_result": 672}
{"molecule": "O=C(N[C@@H]1CCN(S(=O)(=O)CC2CCNCC2)[C@H](Cc2ccccc2)C1)c1cc(C2CC2)on1", "endpoint_result": 518}
{"molecule": "C[C@@H]1C[C@H](NC(=O)c2cc(C3CC3)on2)CCN1C(=O)c1ccc(OCCN2CCNCC2)cc1", "endpoint_result": 806}

Entry CN(C1CCNCC1)S(=O)(=O)N1[C@@H]2CCC[C@H]1C[C@H](NC(=O)c1cc(C3CC3)on1)C2 — recorded IC50 = 130

molecule O=C(N[C@@H]1CCN(S(=O)(=O)C2CCNC2)[C@H](Cc2ccccc2)C1)c1cc(C2CC2)on1 (stereo partly shown) , IC50 observed: 667

* * *

Each entry below carries its recorded IC50.
target_of_assay: UniProt Q9H7B4
test_description: SMYD3 cell assay (Trimethyl-MEKK2 In-Cell Western in 293T/17 cells)
Type: cell-based
condition_description: average of n = 1 to n = 50; read-out: SMYD3 Cell IC50
Output spec: scalar in µM, unitless text.

Past entries and their recorded results:
{"compound": "O=C(N[C@H]1CCN(S(=O)(=O)CC2CCNCC2)[C@@H](Cc2ccccc2)C1)c1cc(C2CC2)on1 [compound 647]", "IC50 (µM)": 0.809}
{"compound": "O=C(N[C@H]1C[C@H]2CC[C@@H](C1)N2S(=O)(=O)CCN1CCC(O)C1)c1cc(C2CC2)on1 (stereo partly drawn) [compound 690]", "IC50 (µM)": 0.553}

IC50 in this record for C[C@H]1CN(S(=O)(=O)CC2CCN(CCN3CCOCC3)CC2)CC[C@H]1NC(=O)c1cc(C2CC2)on1 [compound 738] : 2.82

Per the record, C[C@H]1C[C@@H](NC(=O)c2cc(C3CC3)on2)CCN1S(=O)(=O)c1ccncc1 [compound 706] has IC50 of 1.21

// recorded IC50 for C[C@H]1C[C@@H](NC(=O)c2cc(C3CC3)on2)CCN1S(=O)(=O)c1ccnc(N)c1 [compound 756] : 1.77

Value of measured IC50 for the entry C[C@@H]1C[C@H](NC(=O)c2cc(C3CC3)on2)CCN1C(=O)c1ccc(CN2CCNCC2)cc1 [compound 658] : 1.4

Briefly, IC50 measured for C[C@H]1CN(S(=O)(=O)c2ccc(C(C)(C)N)cc2)CC[C@H]1NC(=O)c1cc(C2CC2)on1 [compound 627] : 0.243

Entry CC1CN(S(=O)(=O)N2CC[C@H](NC(=O)c3cc(C4CC4)on3)C[C@@H]2C)CC(C)N1 (stereo partly drawn) [compound 701] ; IC50 = 1.84

Lab note: C[C@H]1CN(S(=O)(=O)N(C)C2CCN(C)CC2)CC[C@H]1NC(=O)c1cc(C2CC2)on1 [compound 668] gave IC50 of 0.576

Lab note: measured IC50 of C[C@@H]1C[C@@H](NC(=O)c2cc(C3CC3)on2)CCN1S(=O)(=O)N1CCNCC1 [compound 652] was 0.339

Item: CN1CCN(S(=O)(=O)N2[C@@H]3CC[C@H]2C[C@@H](NC(=O)c2cc(C4CC4)on2)C3)CC1CO (stereo partly drawn) [compound 684] | IC50: 0.923

* * *

target_of_assay: UniProtKB Q9H7B4
test_description: SMYD3 biochemical assay (SPA, 3H-SAM methylation of MEKK2 protein substrate)
condition_description: read-out: SMYD3 Biochem IC50 (μM)*
Quick rule for you: IC50 under 0.5 µM gets TRUE, anything else gets FALSE.

{"compound": "CCC1(C(=O)N2CCC(NC(=O)c3cc(C4CC4)on3)C[C@@H]2C)CCNCC1 (some centres unmarked)", "category_label": "FALSE"}
{"compound": "CC[C@@H]1CN(C(=O)[C@H]2CC[C@H](N)CC2)CC[C@@H]1NC(=O)c1cc(C2CC2)on1", "category_label": "TRUE"}

Strictly below 0.5 µM: is that where IC50 of N[C@H]1CC[C@H](C(=O)N2CCC(NC(=O)c3cc(C4CC4)on3)CC2Cc2ccccc2)CC1 (some centres unmarked) sits? FALSE

Lab note: confirm whether the reported IC50 for this compound is below 0.5 µM, equality not counting. compound: C[C@@H]1CC(NC(=O)c2cc(C3CC3)on2)CCN1C(=O)C1CC2(CCNC2)C1 (some centres unmarked) FALSE

For this compound, is IC50 lower than 0.5 µM? N[C@H]1CC[C@H](C(=O)N2CC3CCC2CC3NC(=O)c2cc(C3CC3)on2)CC1 (some centres unmarked) TRUE

Below 0.5 µM on IC50? Entry C[C@H]1C[C@@H](NC(=O)c2cc(C3CC3)on2)CCN1C(=O)CCN FALSE

is_below(IC50, 0.5 µM) for C[C@H]1C[C@H](NC(=O)c2cc(C3CC3)on2)CCN1S(=O)(=O)N1CCN(C)CC1 ? FALSE

Threshold test, IC50 < 0.5 µM: O=C(N[C@H]1C[C@H]2CC[C@@H](C1)N2S(=O)(=O)CCN1CCOCC1)c1cc(C2CC2)on1 FALSE

* * *

target_of_assay: SMYD3 (Homo sapiens (Human), UniProt Q9H7B4)
Sequence (Q9H7B4 whole entry): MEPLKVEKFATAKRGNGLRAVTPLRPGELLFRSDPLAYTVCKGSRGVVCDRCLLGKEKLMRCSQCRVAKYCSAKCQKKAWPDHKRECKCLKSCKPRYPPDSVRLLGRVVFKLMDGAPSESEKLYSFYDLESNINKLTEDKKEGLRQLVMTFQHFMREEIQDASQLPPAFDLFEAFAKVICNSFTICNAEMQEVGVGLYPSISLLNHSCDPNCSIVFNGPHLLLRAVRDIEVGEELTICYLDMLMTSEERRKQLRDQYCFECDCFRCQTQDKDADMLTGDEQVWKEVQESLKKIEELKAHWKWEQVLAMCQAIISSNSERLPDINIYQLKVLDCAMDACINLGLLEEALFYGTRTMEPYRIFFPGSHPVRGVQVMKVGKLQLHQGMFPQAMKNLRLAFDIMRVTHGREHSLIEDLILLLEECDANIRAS
test_description: SMYD3 biochemical assay (SPA, 3H-SAM methylation of MEKK2 protein substrate)
condition_description: read-out: SMYD3 Biochem IC50*
test_readout: pIC50
Quick note: pIC50 values are minus log10 of concentrations in mol/L.

Before answering, review these 3 worked examples.
{"compound": "COCCN(C)C1CCN(S(=O)(=O)N2CC[C@H](NC(=O)c3cc(C4CC4)on3)C[C@@H]2C)CC1 [compound 851]", "pIC50": 8.19}
{"compound": "CN[C@H]1CC[C@H](S(=O)(=O)N2CC[C@@H](NC(=O)c3cc(C4CC4)on3)[C@@H](C)C2)CC1 [compound 885]", "pIC50": 7.92}
{"compound": "CN(C)[C@H]1CC[C@H](S(=O)(=O)N2[C@@H]3CC[C@H]2C[C@@H](NC(=O)c2cc(C4CC4)on2)C3)CC1 [compound 807]", "pIC50": 8.61}

Kindly note: SMYD3 (Homo sapiens (Human), UniProt Q9H7B4), CN[C@H]1CC[C@@H](S(=O)(=O)N2[C@@H]3CC[C@H]2C[C@@H](NC(=O)c2cc(C4CC4)on2)C3)CC1 [compound 798] , pIC50 value reported: 8.72

Observed pIC50 on SMYD3 (Homo sapiens (Human), UniProt Q9H7B4), entry COCCCN1C2CCC1CN(S(=O)(=O)N1[C@@H]3CC[C@H]1C[C@@H](NC(=O)c1cc(C4CC4)on1)C3)C2 [compound 888] , equals 7.91

Bench note, SMYD3 (Homo sapiens (Human), UniProt Q9H7B4): NCc1ccc(S(=O)(=O)N2[C@@H]3CC[C@H]2C[C@@H](NC(=O)c2cc(C4CC4)on2)C3)cc1 [compound 929] , pIC50 reads 7.43

Response field pIC50 (SMYD3 (Homo sapiens (Human), UniProt Q9H7B4)) for item NCC1CCN(S(=O)(=O)N2[C@@H]3CC[C@H]2C[C@@H](NC(=O)c2cc(C4CC4)on2)C3)CC1 [compound 830] : 8.36

# lookup: CN(CCO)C1CCN(CCS(=O)(=O)N2[C@@H]3CC[C@H]2C[C@@H](NC(=O)c2cc(C4CC4)on2)C3)C1 (some centres unmarked) [compound 921] on SMYD3 (Homo sapiens (Human), UniProt Q9H7B4), pIC50 = 7.56

Case C[C@H](C1CCN(C)CC1)S(=O)(=O)N1[C@@H]2CC[C@H]1C[C@@H](NC(=O)c1cc(C3CC3)on1)C2 [compound 876] , SMYD3 (Homo sapiens (Human), UniProt Q9H7B4), pIC50 recorded as 8.00

Reading of pIC50 for COCCCN(C)C1CCN(S(=O)(=O)N2[C@@H]3CC[C@H]2C[C@@H](NC(=O)c2cc(C4CC4)on2)C3)CC1 [compound 899] with SMYD3 (Homo sapiens (Human), UniProt Q9H7B4): 7.84
